Target: T1, hBCMA (human BCMA) (Homo sapiens, UniProt Q02223)
T1 sequence (Q02223 1-184): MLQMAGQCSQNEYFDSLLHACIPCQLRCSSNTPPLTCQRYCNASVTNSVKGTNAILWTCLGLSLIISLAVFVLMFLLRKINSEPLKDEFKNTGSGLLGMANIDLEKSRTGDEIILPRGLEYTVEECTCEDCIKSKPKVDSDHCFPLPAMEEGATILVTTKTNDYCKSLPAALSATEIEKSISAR
Experiment: Kinetics and affinity of hBCMA/human IgG interactions by SPR (Bio-Rad Proteon XPR36)
Type: binding
Details: huBCMA, 37° C.
Parameter: ka (1/Ms) huBCMA @ 37° C. (M⁻¹ s⁻¹)
All answers are understood in M⁻¹ s⁻¹, so give the number only.

| Molecule | Endpoint result |
| --- | --- |
| L3.PY/L1.PH/H2.HA: anti-BCMA antibody (antibody, V domains shown) VH: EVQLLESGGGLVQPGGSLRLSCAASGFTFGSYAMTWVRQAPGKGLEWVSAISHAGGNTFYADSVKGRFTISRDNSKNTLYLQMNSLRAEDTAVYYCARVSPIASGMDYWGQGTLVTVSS VL: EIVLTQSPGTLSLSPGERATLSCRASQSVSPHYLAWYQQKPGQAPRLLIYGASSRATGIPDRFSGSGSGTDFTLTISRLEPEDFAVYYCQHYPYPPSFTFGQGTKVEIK | 2.37e+06 |

Below: the item to evaluate.
I have this molecule here, L3.PY/L1.AH/H2.YQ: anti-BCMA antibody (antibody, V domains shown) VH: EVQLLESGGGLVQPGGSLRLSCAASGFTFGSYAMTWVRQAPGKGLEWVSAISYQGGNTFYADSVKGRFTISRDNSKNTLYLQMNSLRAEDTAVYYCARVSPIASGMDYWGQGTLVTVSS VL: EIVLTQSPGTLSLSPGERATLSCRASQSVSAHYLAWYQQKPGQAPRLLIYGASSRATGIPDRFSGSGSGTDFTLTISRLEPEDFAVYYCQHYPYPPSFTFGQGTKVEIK , and I need its recorded ka (1/Ms) huBCMA @ 37° C..
2.42e+06

Data origin: patent US11814435B2
